Below is a list of entries, each paired with its recorded % of PhenDV displacement at 1 µM of ligand value.
system: CEB25-WT minisatellite sequence G4; assay: PhenDV G4-FID assay; type: binding; conditions: PhenDV 1.5 eq, K+100 buffer
quantity measured: % of PhenDV displacement at 1 µM of ligand (%)

compound	unit name	meas value
Cc1ccc(-c2cc(-c3ccccn3)nc(-c3ccccn3)c2)cc1.[Cl-].[Cl][Pt+]	%	45
F[P-](F)(F)(F)(F)F.[Pt+][C]#Cc1ccccc1.c1ccc(-c2cccc(-c3ccccn3)n2)nc1	%	13
[Cl-].[Cl][Pt+].c1ccc(-c2cccc(-c3ccccn3)n2)nc1	%	13
C[n+]1cc(NC(=O)c2ccc3ccc4ccc(C(=O)Nc5cc6ccccc6[n+](C)c5)nc4c3n2)cc2ccccc21 [PhenDC3, reference compound]	%	99
CN(C)CCCNCc1ccc(-c2cc(-c3ccccn3)nc(-c3ccccn3)c2)cc1.[Cl-].[Cl][Pt+]	%	72
[Cl-].[Cl][Pt+].c1ccc(-c2cc(-c3ccc(OCCN4CCCC4)cc3)nc(-c3ccccn3)n2)nc1	%	33
